# credit: patent US20250066370A1

System: CAL-120, human breast adenocarcinoma cells
Experiment: Proliferation assay CAL-120 (crystal violet)
Format: cell-based
Conditions: 96 h, CAL-120 parental cells, 4 days, median, read-out: Prolif-CAL-120, IC50 - [mol/l] (median)
value_kind: IC50 (nM)
Give the quantity in nM, number only.

1. FC(F)(F)Oc1ccc(-c2nnc(CNc3nc(N4CCOCC4)nn4c(C(F)(F)F)cnc34)[nH]2)cn1	63.2
2. FC(F)(F)Oc1ccc(-c2nnc(CNc3nc(N4CCOCC4)nn4c(C(F)(F)F)cnc34)[nH]2)cc1	248
3. FC(F)(F)c1ccc(-c2cnc(CNc3nc(N4CCOCC4)nc4c(Br)cnn34)[nH]2)cc1	173
4. FC(F)(F)c1ccc(-c2nnc(CNc3nc(N4CCOCC4)nc4c(C(F)(F)F)cnn34)[nH]2)cc1	224
5. FC(F)(F)c1ccc(-c2cnc(CNc3nc(N4CCOCC4)nc4c(C(F)(F)F)cnn34)[nH]2)cc1	109

Exercise: Please give the measured IC50 for this molecule: `FC(F)(F)c1ccc(-c2nnc(CNc3nc(N4CCOCC4)nc4c(C(F)(F)F)cnn34)[nH]2)cn1`
Solution: 211

Exercise: Try `FC(F)(F)Oc1ccc(-c2nnc(CNc3nc(N4CCOCC4)nc4c(C(F)(F)F)cnn34)[nH]2)cc1` next.
Solution: 319

Exercise: Try `FC(F)(F)c1ccc(-c2nnc(CNc3nc(N4CCOCC4)nc4c(Br)cnn34)[nH]2)cc1` next.
Solution: 580

Exercise: Try `FC(F)(F)c1ccc(-c2cnc(CNc3nc(N4CCOCC4)nn4c(C(F)(F)F)cnc34)[nH]2)cc1` next.
Solution: 103

Exercise: Try `FC(F)(F)Oc1ccc(-c2nnc(CNc3nc(N4CCOCC4)nc4c(Br)cnn34)[nH]2)cc1` next.
Solution: 370

Exercise: Try `FC(F)(F)Oc1ccc(-c2cnc(CNc3nc(N4CCOCC4)nc4c(Br)cnn34)[nH]2)cc1` next.
Solution: 103

Exercise: Try `Cc1ccc(-c2nnc(CNc3nc(N4CCOCC4)nn4c(C(F)(F)F)cnc34)[nH]2)cn1` next.
Solution: 99.3

Exercise: Try `Cc1ccc(-c2nnc(CNc3nc(N4CCOCC4)nc4c(C(F)(F)F)cnn34)[nH]2)cn1` next.
Solution: 333

Exercise: Try `FC(F)(F)Oc1ccc(-c2nnc(CNc3nc(N4CCOCC4)nc4c(C(F)(F)F)cnn34)[nH]2)cn1` next.
Solution: 88.1

Exercise: Try `COc1ccc(-c2nnc(CNc3nc(N4CCOCC4)nc4c(C(F)(F)F)cnn34)[nH]2)cn1` next.
Solution: 355

Exercise: Try `FC(F)(F)c1ccc(-c2cnc(CNc3nc(N4CCOCC4)nn4c(C(F)(F)F)cnc34)[nH]2)cn1` next.
Solution: 14.8

Exercise: Try `FC(F)(F)c1ccc(-c2nnc(CNc3nc(N4CCOCC4)nn4c(C(F)(F)F)cnc34)[nH]2)cc1` next.
Solution: 419

Exercise: Try `FC(F)(F)c1ccc(-c2cnc(CNc3nc(N4CCOCC4)nc4c(C(F)(F)F)cnn34)[nH]2)cn1` next.
Solution: 30.2

Exercise: Try `COc1ccc(-c2cnc(CNc3nc(N4CCOCC4)nn4c(C(F)(F)F)cnc34)[nH]2)cc1` next.
Solution: 29.2

Exercise: Try `COc1ccc(-c2cnc(CNc3nc(N4CCOCC4)nc4c(C(F)(F)F)cnn34)[nH]2)cn1` next.
Solution: 99
